Recorded Affinity ELISA CPE mutant ratio (1:3, pH 6.0/7.4) values for a group of molecules are listed next.
TGT: T1, Axl (Homo sapiens, UniProt P30530)
T1 sequence (P30530 26-451 limits assumed): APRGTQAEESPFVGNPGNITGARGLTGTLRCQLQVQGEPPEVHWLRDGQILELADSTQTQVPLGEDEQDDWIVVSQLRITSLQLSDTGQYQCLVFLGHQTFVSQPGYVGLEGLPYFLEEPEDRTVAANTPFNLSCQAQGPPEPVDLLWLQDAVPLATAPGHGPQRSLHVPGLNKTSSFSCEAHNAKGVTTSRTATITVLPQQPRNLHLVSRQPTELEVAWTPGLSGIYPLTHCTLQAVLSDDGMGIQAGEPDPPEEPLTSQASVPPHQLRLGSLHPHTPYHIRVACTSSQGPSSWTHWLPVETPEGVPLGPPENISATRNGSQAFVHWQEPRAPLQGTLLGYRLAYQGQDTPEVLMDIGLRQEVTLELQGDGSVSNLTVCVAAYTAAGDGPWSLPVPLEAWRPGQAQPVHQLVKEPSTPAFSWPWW
ASSAY_DETAILS: Affinity ELISA of CPE mutant antibodies for binding to Axl at pH 6.0 over pH 7.4
STATED_CONDITIONS: heavy chain variable region mutants; 1:3 dilution
MEASUREMENT_NAME: Affinity ELISA CPE mutant ratio (1:3, pH 6.0/7.4)

- MOLECULE: "HC-H100P (antibody, V domains shown) VH: EVQLVQSGAEVKKPGATVKISCKVSGYSFTGHTMNWIRQPPGKGLEWIGLIKPSNGGTSYNQKFKGRVTISADKSISTAYLQWSSLKASDTAMYYCAHGPYESYFAMDYWGQGTLVTVSS VL: DIQMTQSPSSLSASVGDRVTITCKASQDVSSAVAWYQQKPGQAPRLLIYWASTRHTGVPSRFSGSGSGTEFTLTISSLQPDDFATYYCQEHFSTPLTFGQGTKVEIK"
  MEASURED_NUMBER: 2.575
- MOLECULE: "HC-T033I (antibody, V domains shown) VH: EVQLVQSGAEVKKPGATVKISCKVSGYSFTGHIMNWIRQPPGKGLEWIGLIKPSNGGTSYNQKFKGRVTISADKSISTAYLQWSSLKASDTAMYYCAHGHYESYFAMDYWGQGTLVTVSS VL: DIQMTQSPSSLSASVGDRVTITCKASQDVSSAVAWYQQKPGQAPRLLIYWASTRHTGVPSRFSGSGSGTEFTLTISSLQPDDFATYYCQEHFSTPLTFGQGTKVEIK"
  MEASURED_NUMBER: 1.594
- MOLECULE: "HC-E102D (antibody, V domains shown) VH: EVQLVQSGAEVKKPGATVKISCKVSGYSFTGHTMNWIRQPPGKGLEWIGLIKPSNGGTSYNQKFKGRVTISADKSISTAYLQWSSLKASDTAMYYCAHGHYDSYFAMDYWGQGTLVTVSS VL: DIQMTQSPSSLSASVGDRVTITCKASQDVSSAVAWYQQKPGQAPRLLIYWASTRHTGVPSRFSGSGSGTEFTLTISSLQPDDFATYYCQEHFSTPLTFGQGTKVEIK"
  MEASURED_NUMBER: 2.674
- MOLECULE: "HC-E102G (antibody, V domains shown) VH: EVQLVQSGAEVKKPGATVKISCKVSGYSFTGHTMNWIRQPPGKGLEWIGLIKPSNGGTSYNQKFKGRVTISADKSISTAYLQWSSLKASDTAMYYCAHGHYGSYFAMDYWGQGTLVTVSS VL: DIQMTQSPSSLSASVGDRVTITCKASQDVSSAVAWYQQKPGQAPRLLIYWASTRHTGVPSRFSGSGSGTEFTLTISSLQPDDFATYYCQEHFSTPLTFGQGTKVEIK"
  MEASURED_NUMBER: 1.798
- MOLECULE: "HC-W110A (antibody, V domains shown) VH: EVQLVQSGAEVKKPGATVKISCKVSGYSFTGHTMNWIRQPPGKGLEWIGLIKPSNGGTSYNQKFKGRVTISADKSISTAYLQWSSLKASDTAMYYCAHGHYESYFAMDYAGQGTLVTVSS VL: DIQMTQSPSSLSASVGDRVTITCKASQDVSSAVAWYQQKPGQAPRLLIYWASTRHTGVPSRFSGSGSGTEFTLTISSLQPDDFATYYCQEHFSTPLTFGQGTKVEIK"
  MEASURED_NUMBER: 7.909
- MOLECULE: "HC-W110T (antibody, V domains shown) VH: EVQLVQSGAEVKKPGATVKISCKVSGYSFTGHTMNWIRQPPGKGLEWIGLIKPSNGGTSYNQKFKGRVTISADKSISTAYLQWSSLKASDTAMYYCAHGHYESYFAMDYTGQGTLVTVSS VL: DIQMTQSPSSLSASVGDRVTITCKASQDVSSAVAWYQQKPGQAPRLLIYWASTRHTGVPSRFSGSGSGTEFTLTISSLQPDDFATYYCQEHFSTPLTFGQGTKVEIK"
  MEASURED_NUMBER: 7.469
- MOLECULE: "HC-F105S (antibody, V domains shown) VH: EVQLVQSGAEVKKPGATVKISCKVSGYSFTGHTMNWIRQPPGKGLEWIGLIKPSNGGTSYNQKFKGRVTISADKSISTAYLQWSSLKASDTAMYYCAHGHYESYSAMDYWGQGTLVTVSS VL: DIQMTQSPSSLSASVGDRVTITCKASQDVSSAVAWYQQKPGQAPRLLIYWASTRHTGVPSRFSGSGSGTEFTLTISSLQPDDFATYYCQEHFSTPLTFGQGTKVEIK"
  MEASURED_NUMBER: 3.898
- MOLECULE: "HC-M107E (antibody, V domains shown) VH: EVQLVQSGAEVKKPGATVKISCKVSGYSFTGHTMNWIRQPPGKGLEWIGLIKPSNGGTSYNQKFKGRVTISADKSISTAYLQWSSLKASDTAMYYCAHGHYESYFAEDYWGQGTLVTVSS VL: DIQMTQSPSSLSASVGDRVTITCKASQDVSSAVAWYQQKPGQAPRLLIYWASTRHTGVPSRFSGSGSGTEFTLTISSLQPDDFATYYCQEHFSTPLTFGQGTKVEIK"
  MEASURED_NUMBER: 2.164
- MOLECULE: "HC-E102R (antibody, V domains shown) VH: EVQLVQSGAEVKKPGATVKISCKVSGYSFTGHTMNWIRQPPGKGLEWIGLIKPSNGGTSYNQKFKGRVTISADKSISTAYLQWSSLKASDTAMYYCAHGHYRSYFAMDYWGQGTLVTVSS VL: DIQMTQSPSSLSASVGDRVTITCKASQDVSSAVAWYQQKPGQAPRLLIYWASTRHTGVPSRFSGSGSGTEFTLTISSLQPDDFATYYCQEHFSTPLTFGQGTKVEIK"
  MEASURED_NUMBER: 3.701
- MOLECULE: "HC-S103N (antibody, V domains shown) VH: EVQLVQSGAEVKKPGATVKISCKVSGYSFTGHTMNWIRQPPGKGLEWIGLIKPSNGGTSYNQKFKGRVTISADKSISTAYLQWSSLKASDTAMYYCAHGHYENYFAMDYWGQGTLVTVSS VL: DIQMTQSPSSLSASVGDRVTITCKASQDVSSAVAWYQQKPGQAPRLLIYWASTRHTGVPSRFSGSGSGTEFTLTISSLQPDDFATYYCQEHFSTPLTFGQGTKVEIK"
  MEASURED_NUMBER: 1.075
